- System: non-replicating M. tuberculosis, luciferase expression
- methodDescription: non-replicating M. tuberculosis inhibition, confirmation, luciferase expression (AID 651856)
parameterMeasured: IC90

Example cases with answers are listed next.
Look up IC90 with non-replicating M. tuberculosis, luciferase expression for this molecule: O=S(Cc1ccccc1)c1nnc(-c2ccccc2)o1 (stereo not drawn)
1 µM

# query: IC90 | item O=S(Cc1cn(Cc2ccc(F)cc2)nn1)c1nnc(-c2ccc(Cl)cc2)o1 (stereo not drawn) | system: non-replicating M. tuberculosis, luciferase expression
4 µM

Requested read-out IC90, target or system non-replicating M. tuberculosis, luciferase expression, entry O=S(=O)(Cc1ccccc1)c1nnc(-c2ccccc2)o1
4 µM

Reported IC90 for non-replicating M. tuberculosis, luciferase expression, given O=S(Cc1cn(Cc2ccccc2)nn1)c1nnc(-c2ccc(Cl)cc2)o1 (stereo not drawn) ?
1 µM

API: value(readout= IC90, system= non-replicating M. tuberculosis, luciferase expression, query= O=S(=O)(Cc1cn(Cc2ccccc2)nn1)c1nnc(-c2ccc(Cl)cc2)o1 )
8 µM

Record lookup: for non-replicating M. tuberculosis, luciferase expression, what IC90 belongs to c1ccc(CSc2nnc(-c3ccccc3)o2)cc1 ?
16 µM

Enter reported IC90 observed with non-replicating M. tuberculosis, luciferase expression for Fc1ccc(Cn2cc(CSc3nnc(-c4ccc(Cl)cc4)o3)nn2)cc1
2 µM

Switching to the query record.
What is its IC90 for non-replicating M. tuberculosis, luciferase expression? Entry: Clc1ccc(-c2nnc(SCc3cn(Cc4ccccc4)nn3)o2)cc1
4 µM
